System: PLA-801
Assay: In vitro cytotoxicity, IC50 by MTT method, PLA-801
Type: cell-based
Settings: PLA-801 cell strain; read-out: IC50 PLA-801
pIC50: −log10 of the molar value.

# COMPOUND, MEASURED TARGET, MEASUREMENT QUALIFIER, pIC50
records = [
    ("O=C(O)c1cc2c3ccccc3n(CCCc3ccccc3)c2cn1", "PLA-801", "=", 3.59),
    ("Cc1nc(C(=O)O)cc2c3ccccc3n(CCCc3ccccc3)c12", "PLA-801", "=", 3.68),
    ("CCOC(=O)c1cc2c3ccccc3n(CCCc3ccccc3)c2c(C)n1", "PLA-801", "=", 3.96),
    ("O=C(O)c1cc2c3ccccc3n(Cc3ccccc3)c2cn1", "PLA-801", "=", 4.00),
    ("OCc1cc2c3ccccc3n(Cc3ccccc3)c2cn1 [Compound 42, 9-benzyl-3-hydroxymethyl-β-carboline]", "PLA-801", "=", 3.80),
    ("CCn1c2ccccc2c2ccncc21", "PLA-801", "=", 3.89),
    ("CCOC(=O)c1cc2c3ccccc3n(Cc3c(F)c(F)c(F)c(F)c3F)c2cn1", "PLA-801", "=", 4.30),
    ("CCOC(=O)c1cc2c3ccccc3n(C)c2cn1 [Compound 30, ethyl 9-methyl-β-carboline-3-carboxylate]", "PLA-801", "=", 3.92),
    ("CCOC(=O)c1cc2c3ccccc3n(CCCc3ccccc3)c2cn1", "PLA-801", "<", 2.52),
    ("NNC(=O)c1cc2c3ccccc3n(Cc3ccccc3)c2cn1 [Compound 52, 3-carbohydrazide-9-benzyl-β-carboline]", "PLA-801", "=", 3.28),
    ("COC(=O)c1cc2c3ccccc3n(Cc3ccccc3)c2cn1", "PLA-801", "=", 3.32),
    ("CCOC(=O)Nc1cc2c3ccccc3n(CC)c2cn1", "PLA-801", "<", 2.52),
    ("Cc1nc(C(=O)O)cc2c3ccccc3n(Cc3c(F)c(F)c(F)c(F)c3F)c12", "PLA-801", "=", 3.72),
    ("Cn1c2ccccc2c2cc(C(=O)O)nc(-c3ccccc3)c21", "PLA-801", "=", 3.19),
    ("CCCc1nc(C(=O)OCC)cc2c3ccccc3n(C)c12", "PLA-801", "=", 3.85),
    ("CCCc1nc(C(=O)OCC)cc2c3ccccc3n(Cc3ccccc3)c12", "PLA-801", "=", 3.80),
    ("CCOC(=O)c1cc2c3ccccc3n(CC)c2cn1 [Compound 31, ethyl 9-ethyl-β-carboline-3-carboxylate]", "PLA-801", "=", 3.77),
    ("c1ccc(Cn2c3ccccc3c3ccncc32)cc1", "PLA-801", "=", 3.92),
    ("CCOC(=O)c1cc2c3ccccc3n(Cc3ccccc3)c2cn1 [Compound 33, ethyl 9-benzyl-β-carboline-3-carboxylate]", "PLA-801", "=", 3.77),
    ("O=C(OCc1ccccc1)c1cc2c3ccccc3n(Cc3ccccc3)c2cn1", "PLA-801", "<", 2.52),
    ("CCCCn1c2ccccc2c2cc(C(=O)O)ncc21", "PLA-801", "=", 4.05),
    ("CCCCn1c2ccccc2c2cc(C(=O)OC)ncc21", "PLA-801", "=", 3.85),
    ("CCCc1nc(C(=O)O)cc2c3ccccc3n(C)c12", "PLA-801", "=", 2.85),
    ("CCCCOC(=O)c1cc2c3ccccc3n(C)c2cn1 [Compound 38, butyl 9-methyl-β-carboline-3-carboxylate]", "PLA-801", "<", 2.52),
    ("O=C(Cn1c2ccccc2c2cc(C(=O)O)ncc21)c1ccccc1", "PLA-801", "=", 3.85),
    ("CCn1c2ccccc2c2cc(C(=O)OC)nc(-c3ccccc3)c21", "PLA-801", "<", 2.52),
    ("CCCc1nc(C(=O)OCC)cc2c3ccccc3n(CCCc3ccccc3)c12", "PLA-801", "=", 3.59),
    ("CCOC(=O)c1cc2c3ccccc3n(Cc3ccccc3)c2c(C)n1", "PLA-801", "=", 2.86),
    ("CCCc1nc(C(=O)O)cc2c3ccccc3n(CC)c12", "PLA-801", "=", 3.15),
    ("CCCCOC(=O)c1cc2c3ccccc3n(CCCC)c2cn1 [Compound 40, butyl 9-butyl-β-carboline-3-carboxylate]", "PLA-801", "=", 2.67),
    ("O=C(O)c1cc2c3ccccc3n(Cc3c(F)c(F)c(F)c(F)c3F)c2cn1", "PLA-801", "=", 4.05),
    ("CCOC(=O)c1cc2c3ccccc3n(CC(=O)c3ccccc3)c2c(C)n1", "PLA-801", "=", 3.80),
    ("Cn1c2ccccc2c2ccncc21", "PLA-801", "=", 3.66),
    ("COC(=O)c1cc2c3ccccc3n(C)c2c(-c2ccccc2)n1", "PLA-801", "<", 2.52),
]
